Read-out: Interleukin-8 (IL8), CXCL8 (gene 3576)
protocol-summary: BSK_LPS_IL8: BioMAP Diversity Plus: LPS Assay for Interleukin-8 (IL8) Biomarker Activity (AID 2283078)
experimental-parameters: primary human HUVEC with PBMC; actives raise or lower the signal
Calls of active or inactive are those of the source. How the source made its calls: active means hit-call score of the fitted dose curve at least 0.9, where 1 is the maximum; inactive means score below 0.9.
Labels: active, inactive

ClC(Cl)c1ccccc1; inactive
N#Cc1c(-c2ccc(Cl)cc2)[nH]c(C(F)(F)F)c1Br; active
O=C(O)C(F)(F)OC(F)(F)C(F)(F)OC(F)(F)C(=O)O; inactive
Nc1cc2c3c(c1)C(c1ccccc1)=N[C@@H](NC(=O)c1cccnc1)C(=O)N3CC2; inactive
N#Cc1cc([N+](=O)[O-])ccc1N; inactive
NC(=O)C(F)(F)C(F)(F)F; inactive
Cc1ccc([N+](=O)[O-])cc1C; inactive
Cc1ccc(O)cc1C; inactive
CCOc1ccc(C(C)(C)COCc2cccc(Oc3ccccc3)c2)cc1; inactive
O=[N+]([O-])c1ccc(Cl)c(Cl)c1; inactive
c1ccc(OP(Oc2ccccc2)Oc2ccccc2)cc1; inactive
O=P(Oc1ccccc1)(Oc1ccccc1)Oc1ccccc1; active
CCOP(=S)(OCC)SCn1nnc2ccccc2c1=O; inactive
O=C(O)C=CC(F)(C(F)(F)F)C(F)(F)F; inactive
CN(C)C(=O)Cl; inactive
